assayed target: TbINO1 (Trypanosoma brucei brucei, UniProt Q5QQ46)
Sequence (Q5QQ46 whole entry): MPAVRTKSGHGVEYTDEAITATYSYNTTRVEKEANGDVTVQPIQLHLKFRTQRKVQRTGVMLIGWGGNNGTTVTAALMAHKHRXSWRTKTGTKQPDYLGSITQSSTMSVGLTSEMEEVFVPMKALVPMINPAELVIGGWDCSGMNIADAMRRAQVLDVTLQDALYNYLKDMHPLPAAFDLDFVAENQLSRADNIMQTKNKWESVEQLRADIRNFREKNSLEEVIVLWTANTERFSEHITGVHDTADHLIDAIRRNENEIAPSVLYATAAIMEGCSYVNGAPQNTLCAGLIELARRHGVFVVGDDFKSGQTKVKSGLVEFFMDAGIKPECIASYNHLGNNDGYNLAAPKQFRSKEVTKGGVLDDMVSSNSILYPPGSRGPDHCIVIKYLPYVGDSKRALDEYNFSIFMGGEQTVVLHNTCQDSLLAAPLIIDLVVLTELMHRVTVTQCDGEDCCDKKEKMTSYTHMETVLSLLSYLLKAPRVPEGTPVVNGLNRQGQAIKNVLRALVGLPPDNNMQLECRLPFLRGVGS
procedure details: biochemical
Format: binding
run parameters: read-out: Tb Ino1 Tm Shift [˚C]
Label rule met for high-side ΔTm at 1000 µM (at or above 0.1 °C) and rule not met for low-side ΔTm at 1000 µM (below it).

# molecule, class name
data = [
    ("OCc1ccnc(N2CCCCC2)c1", "rule not met"),
    ("COC(=O)c1cccc(C)c1 [compound 185, methyl 3‐methylbenzoate]", "rule met"),
    ("O=C(O)CCc1ccccc1O [compound 323, 3‐(2‐hydroxyphenyl)propanoic acid]", "rule met"),
    ("Cc1cccc2c1NCCC2 [compound 166, 8‐methyl‐1,2,3,4‐tetrahydroquinoline]", "rule not met"),
    ("O=C(Nc1ccncc1)c1ccccc1 [compound 603, N1‐(4‐pyridyl)benzamide]", "rule met"),
    ("CC1(C)C=Cc2cc(C#N)ccc2O1", "rule not met"),
    ("OCc1ccc2occc2c1", "rule met"),
]

Okay, next one:
API: above_or_equal(metric=ΔTm at 1000 µM, cutoff=0.1 °C) for item `Nc1cccc(-n2cccc2)c1`
rule met

###

Test system: A549 cells
procedure details: Cytotoxicity against A549 cells, Alamar Blue
Type: cell-based
run parameters: Homo sapiens, A549, 65 h; Supplementary Table 1; compound 0.5 mM; percentage of controls (n=1)
property measured: viability at 500 µM (%)
Numbers only, in %.

Example molecules with recorded viability at 500 µM:
# molecule, property measured, measured value
records = [
    ("COC(=O)Cc1cccc(OC)c1 [compound 451, methyl 2‐(3‐methoxyphenyl)acetate]", "viability at 500 µM", 93.2),
    ("Cn1c(=S)oc2ccccc21", "viability at 500 µM", 104),
    ("Nc1ccccc1N1CCNCC1", "viability at 500 µM", 54.3),
    ("O=C(O)c1ccccc1-n1cccc1", "viability at 500 µM", 64.4),
    ("c1ccc(Sc2ccsc2)cc1", "viability at 500 µM", 93.9),
]

// each molecule listed below needs its viability at 500 µM
1. N#Cc1cccc(-n2ccnc2)c1
2. NC1CCN(Cc2ccccc2)CC1
3. NCc1ccc2occc2c1
4. O=C(O)c1c[nH]c2ccccc12
5. Cc1ccsc1CN
6. Nc1cc(Cl)cc(Cl)c1
7. N#Cc1cccc(N2CCCC2)c1

135
89.3
90.7
61.8
124
66.5
63.3

Batch of 5 molecules: report viability at 500 µM for each.
1. OCc1ccc(N2CCOCC2)cc1
2. NC(=S)C1=Cc2ccccc2OC1 [compound 558, 2H‐chromene‐3‐carbothioamide]
3. O=C(O)c1ccccc1-c1cccnc1
4. CNCc1ccncc1
5. Cc1cc(O)cc(C)c1C#N [compound 164, 4‐hydroxy‐2,6‐dimethylbenzonitrile]

1. 75.4
2. 98.1
3. 59.8
4. 78.5
5. 90

###

System: A549 cells
procedure details: Cytotoxicity against A549 cells, Alamar Blue
Format: cell-based
run parameters: Homo sapiens, A549, 65 h; Supplementary Table 1; compound 0.5 mM; percentage of controls (n=1)
property measured: viability at 500 µM (%)
Answers are plain numbers, in %.

# molecule, property measured, measured value
records = [
    ("NC1=CC=C2OCOCC2C1 (centres unmarked) [compound 195, 4,5‐dihydro‐1,3‐benzodioxine‐6‐amine]", "viability at 500 µM", 54.1),
]

Please report viability at 500 µM for every entry that follows.
1. N#Cc1ncccc1N1CCCCC1 [compound 517, 3‐piperidin‐1‐ylpyridine‐2‐carbonitrile]
2. O=C(O)c1ccc(-c2ccccc2)s1 [compound 649, 5‐phenylthiophene‐2‐carboxylic acid]
3. COC(=O)c1ccccc1F [compound 220, methyl 2‐fluorobenzoate]
4. NC(=O)c1ccc(F)c(Cl)c1 [compound 380, 3‐chloro‐4‐fluorobenzamide]
5. c1ccc(Cn2cccc2)nc1 [compound 249, 2‐(1H‐pyrrol‐1‐ylmethyl)pyridine]
6. Cc1cc(C(=O)O)c(C)o1 [compound 130, 2,5‐dimethyl‐3‐furoic acid]

[54.7, 141, 99.5, 95.9, 83.6, 121]

Quote A549 cells viability at 500 µM for entry O=C(O)c1ccc(CN2CCCC2)cc1 [compound 665, 4‐(pyrrolidin‐1‐ylmethyl)benzoic acid] .
104

###

System: A549 cells
procedure details: Cytotoxicity against A549 cells, Alamar Blue
Type: cell-based
run parameters: Homo sapiens, A549, 65 h; Supplementary Table 1; compound 0.5 mM; percentage of controls (n=1)
Protocol: Cytotoxic effects against HeLa and A549 cells were determined in a similar manner. Briefly, the cells were cultured in DMEM supplemented with 10% FCS and 2 mM L-Glutamine. Cells were plated at initial cell concentration of 2 × 10^4 cells/well and incubated with the compounds for ~65 hours prior to addition of Alamar Blue solution for a further 5 hours.
Would you mind telling me the reported viability at 500 µM of each entry?
Numbers only, in %.

# compound, scale unit, measured value
data = [
    ("Nc1cccc(-c2cncnc2)c1", "%", 56.4),
    ("Clc1ccc(Cl)s1", "%", 117),
    ("c1ccc(-c2c[nH]cn2)cc1", "%", 99.1),
]

Give me viability at 500 µM for each of these compounds, listed below.
1. O=C1Cc2ccccc2N1
2. O=C(O)c1ccc(-c2ccsc2)cc1

[229, 149]

###

System: A549 cells
procedure details: Cytotoxicity against A549 cells, Alamar Blue
Format: cell-based
run parameters: Homo sapiens, A549, 65 h; Supplementary Table 1; compound 0.5 mM; percentage of controls (n=1)
property measured: viability at 500 µM (%)
Answers are plain numbers, in %.

# compound, viability at 500 µM, %
measured = [
    ("Nc1ccc(N2CCCCC2)cc1", 53.2),
]

Batch request: viability at 500 µM per item, same order as input.
1. NC(=O)c1cccs1 [compound 80, thiophene‐2‐carboxamide]
2. Nc1cccc(N2CCOCC2)c1
3. NS(=O)(=O)c1ccc(F)cc1F [compound 576, 2,4‐difluorobenzenesulfonamide]
4. O=C(O)C1CCCCO1 (centres unmarked) [compound 93, tetrahydropyran‐2‐carboxylic acid]

1: 90.3; 2: 85; 3: 12.9; 4: 107

###

assayed target: TbINO1 (Trypanosoma brucei brucei)
procedure details: biochemical
Format: binding
run parameters: read-out: Tb Ino1 Tm Shift [˚C]
Would you kindly list ΔTm at 1000 µM for each of these compounds?
One number for each entry, in °C.

# example entries with known answers
# compound, scale unit, ΔTm at 1000 µM
rows = [
    ("OCc1ccc(OC(F)(F)F)cc1 [compound 563, [4‐(trifluoromethoxy)phenyl]methanol]", "°C", 0.01),
    ("O=C(O)C(O)c1ccccc1 (centres unmarked) [compound 202, 2‐hydroxy‐2‐phenylacetic acid]", "°C", 0),
]

For each of the items listed, what is its ΔTm at 1000 µM?
1. OCc1cn2ccsc2n1 [compound 221, imidazo[2,1‐b]thiazol‐6‐ylmethanol]
2. COc1ccc(Cl)cc1C(=O)O
3. CCc1cccc(C)n1
4. Nc1ccccc1CN1CCOCC1
5. OCc1csc(-c2cccnc2)n1
6. OCc1cn2ccccc2n1 [compound 172, imidazo[1,2‐a]pyridin‐2‐ylmethanol]
7. Cc1nc(CO)c(C)o1

[0.09, 0.07, 0.4, 0.35, 0.29, 0.44, 0.13]

###

Provide the reported viability at 500 µM of each item.
Tested on: A549 cells
procedure details: Cytotoxicity against A549 cells, Alamar Blue
Assay type: cell-based
run parameters: Homo sapiens, A549, 65 h; Supplementary Table 1; compound 0.5 mM; percentage of controls (n=1)
One number for each entry, in %.

# compound, assayed target, measured value
records = [
    ("CC(=O)c1nccnc1C", "A549 cells", 88.3),
    ("Oc1ccccc1N1CCOCC1", "A549 cells", 71.1),
    ("N#Cc1ccccc1Oc1ccccc1", "A549 cells", 58.3),
]

For each of the compounds below, state viability at 500 µM.
1. OCc1cc(-c2cccs2)[nH]n1
2. COC(=O)c1ccccc1C#N [compound 274, methyl 2‐cyanobenzoate]
3. Cn1nc(CO)c2ccccc21
4. Cc1nc(C(N)=S)cs1 [compound 252, 2‐methyl‐1,3‐thiazole‐4‐carbothioamide]

85
64
73.2
102

Give viability at 500 µM for each listed item.
1. N#Cc1ccc(OC2CCOCC2)cc1 [compound 645, 4‐(tetrahydropyran‐4‐yloxy)benzonitrile]
2. O=C(O)c1cnccc1C(F)(F)F
3. NCc1ccc(-n2cccc2)cc1
4. OCc1ccc2ccccc2n1
5. NC(=O)Cc1ccc(O)cc1 [compound 192, 2‐(4‐hydroxyphenyl)acetamide]
6. OCc1ccc(-n2ccnc2)cc1 [compound 386, [4‐(1H‐imidazol‐1‐yl)phenyl]methanol]
7. Cc1ccc2cc(C(=O)O)ccc2n1

1: 102; 2: 103; 3: 94.4; 4: 119; 5: 44.6; 6: 101; 7: 126

Can you give me viability at 500 µM for all of these, one by one?
1. Nc1cc(F)c(Cl)cc1N
2. NC(=S)c1ccno1 [compound 86, isoxazole‐5‐carbothioamide]
3. COc1ncccc1N

1: 50.4; 2: 105; 3: 75.4
